- System tested: human PCSK9 (Homo sapiens, UniProt Q8NBP7)
- Sequence (Q8NBP7 153-692): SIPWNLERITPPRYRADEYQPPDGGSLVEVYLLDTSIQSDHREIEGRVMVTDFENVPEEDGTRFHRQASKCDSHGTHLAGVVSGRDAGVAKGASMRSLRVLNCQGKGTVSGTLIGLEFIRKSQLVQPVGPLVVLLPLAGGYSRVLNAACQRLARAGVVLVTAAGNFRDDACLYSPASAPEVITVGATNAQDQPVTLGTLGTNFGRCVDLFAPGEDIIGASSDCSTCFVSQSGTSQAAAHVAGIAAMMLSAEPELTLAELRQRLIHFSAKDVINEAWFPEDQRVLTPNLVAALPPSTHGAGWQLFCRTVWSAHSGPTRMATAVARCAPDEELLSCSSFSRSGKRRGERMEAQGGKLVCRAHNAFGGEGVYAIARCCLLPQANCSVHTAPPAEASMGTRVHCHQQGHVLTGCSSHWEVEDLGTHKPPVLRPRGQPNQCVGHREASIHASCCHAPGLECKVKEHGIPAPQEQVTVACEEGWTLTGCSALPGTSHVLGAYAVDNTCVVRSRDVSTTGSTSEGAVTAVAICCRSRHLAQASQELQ
- Sequence (Q8NBP7 31-152 partner limits assumed): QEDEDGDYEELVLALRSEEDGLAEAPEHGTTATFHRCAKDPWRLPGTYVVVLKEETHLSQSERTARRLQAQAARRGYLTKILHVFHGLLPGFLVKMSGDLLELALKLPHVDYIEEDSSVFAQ
- Protocol summary: PCSK9 ligand binding assay (TR-FRET): interference with binding of human PCSK9 to human LDLR
- Condition set: Human PCSK9 Alexa Fluor 647 / Human LDLR extracellular domain-Europium Kryptate
pIC50: −log10 of the molar value.
Property: pIC50

Observe how each entry below is paired with its result.
compound="C[C@H]1C(=O)N[C@@H](CO)C(=O)N[C@@]2(Cc3ccc(Cl)cc3)CCCN(C2)C(=O)[C@H](CC2CC2)CC(=O)N1Cc1c(F)cc(Cl)cc1Oc1ccc(-c2cnc(CN(C)C(C)(C)C)n2C)cc1 [Compound 163]" system_tested="human PCSK9 (Homo sapiens, UniProt Q8NBP7)" property=pIC50 assay_value=8.92
compound="C[C@H]1C(=O)N[C@@H](CO)C(=O)N[C@@]2(Cc3ccc(Cl)cc3)CCCN(C2)C(=O)[C@H](Cc2ccc(F)c(F)c2F)CC(=O)N1Cc1c(F)cc(Cl)cc1Oc1ccc(-c2cnc(CN(C)C)n2C)cc1 [Compound 48]" system_tested="human PCSK9 (Homo sapiens, UniProt Q8NBP7)" property=pIC50 assay_value=9.22
compound="C/C=C/C[C@@H]1CC(=O)N(Cc2ccc(Cl)cc2Oc2ccc(-c3cnc(CN(C)C)n3C)cc2)[C@@H](C)C(=O)N[C@@H](CO)C(=O)N[C@@]2(Cc3ccc(Cl)cc3)CCCN(C2)C1=O [Compound 40]" system_tested="human PCSK9 (Homo sapiens, UniProt Q8NBP7)" property=pIC50 assay_value=9.22

1 = COC[C@@H]1NC(=O)[C@H](C)N(Cc2ccc(Cl)cc2Oc2ccc(-c3cnc(CN(C)C)n3C)nc2)C(=O)C[C@@H](Cc2ccccc2)C(=O)N2CCC[C@@](Cc3ccc(Cl)cc3)(C2)NC1=O [Compound 52]
2 = C[C@H]1C(=O)N[C@@H](CO)C(=O)N(C)[C@H](Cc2ccc(Cl)cc2)CN(C)C(=O)[C@H]([C@H]2CCc3ccccc32)CC(=O)N1Cc1ccc(Cl)cc1Oc1ccc(-c2cnc(CN(C)C)n2C)cc1.Cl [Compound 91]
Of the pair 1 and 2 , name the member with the lesser recorded pIC50. Indicate which entry you chose by stating its label.
2
